target: L858R/T790M/C797S EGFR (Homo sapiens, UniProt P00533, C797S/L858R/T790M); construct: expressed in transfected cells; host or cells: H1975 clone #25 (lentiviral over-expression, endogenous EGFR knocked out by sgRNA); test: EGFR degradation HTRF assay in H1975-clone #25 (LTC) cells; assay type: cell-based; details: NCI-H1975, H1975 # 25-LTC (L858R/T790M/C797S), 16h treatment, maximum percentage of degradation
Sequence (P00533 25-1210 T790M/C797S/L858R): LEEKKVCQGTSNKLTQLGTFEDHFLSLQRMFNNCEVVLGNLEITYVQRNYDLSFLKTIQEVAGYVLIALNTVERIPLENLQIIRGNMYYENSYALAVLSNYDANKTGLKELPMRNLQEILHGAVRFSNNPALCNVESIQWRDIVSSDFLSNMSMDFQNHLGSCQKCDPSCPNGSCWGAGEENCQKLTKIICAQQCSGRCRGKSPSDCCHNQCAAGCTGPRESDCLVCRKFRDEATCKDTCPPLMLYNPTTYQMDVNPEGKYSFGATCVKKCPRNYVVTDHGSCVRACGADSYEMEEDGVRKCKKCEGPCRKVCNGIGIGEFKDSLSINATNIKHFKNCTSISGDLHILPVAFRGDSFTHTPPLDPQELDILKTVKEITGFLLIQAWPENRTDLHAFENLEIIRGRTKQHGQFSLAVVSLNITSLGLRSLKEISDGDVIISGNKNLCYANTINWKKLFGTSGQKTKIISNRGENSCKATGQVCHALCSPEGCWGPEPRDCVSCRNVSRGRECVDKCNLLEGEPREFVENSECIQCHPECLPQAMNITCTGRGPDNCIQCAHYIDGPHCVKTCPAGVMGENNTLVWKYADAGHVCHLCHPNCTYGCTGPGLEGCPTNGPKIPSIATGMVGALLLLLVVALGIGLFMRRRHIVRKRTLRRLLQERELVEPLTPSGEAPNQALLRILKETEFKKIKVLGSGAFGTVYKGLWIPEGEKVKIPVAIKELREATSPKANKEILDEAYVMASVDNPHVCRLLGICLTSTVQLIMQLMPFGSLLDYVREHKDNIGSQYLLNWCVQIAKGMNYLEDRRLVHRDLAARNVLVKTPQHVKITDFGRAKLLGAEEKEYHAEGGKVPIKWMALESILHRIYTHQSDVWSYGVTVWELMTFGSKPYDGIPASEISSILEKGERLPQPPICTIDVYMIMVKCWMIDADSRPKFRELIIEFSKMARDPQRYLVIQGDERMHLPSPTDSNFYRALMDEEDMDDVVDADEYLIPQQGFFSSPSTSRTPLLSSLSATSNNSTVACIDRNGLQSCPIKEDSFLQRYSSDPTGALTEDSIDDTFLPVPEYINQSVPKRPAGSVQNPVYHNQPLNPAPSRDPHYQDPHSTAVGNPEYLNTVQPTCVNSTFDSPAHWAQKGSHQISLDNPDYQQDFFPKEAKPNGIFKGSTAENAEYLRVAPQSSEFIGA
result-type: Dmax (%)

Below: 5 molecules and their reported Dmax.
molecule: Cc1cc2cc(n1)-c1cnn(C)c1OCCC[C@@H](C)CN1/C(=N/C2=O)Nc2ccc(C(=O)N(C)C3CC4CCCC(C3)N4CCc3cc(F)c([C@H]4CCC(=O)NC4=O)c(F)c3)cc21 (stereo partly shown) [Example 266]
Dmax / %: 81.4

molecule: Cc1cc2cc(n1)-c1cnn(C)c1OCCC[C@@H](C)CN1/C(=N/C2=O)Nc2ccc(CN3C4CCC3CN(C(=O)[C@@H]3CCN(c5cc(F)c([C@H]6CCC(=O)NC6=O)c(F)c5)C3)C4)cc21 [Example 187]
Dmax / %: 86.1

molecule: Cc1cc2cc(n1)-c1cnn(C)c1OCCC[C@@H](C)CN1/C(=N/C2=O)Nc2ccc(N3CCC(C(=O)N4CCC(Nc5cc(F)c([C@H]6CCC(=O)NC6=O)c(F)c5)CC4)CC3)cc21 [Example 402]
Dmax / %: 88.3

molecule: COC[C@@H]1CN(Cc2ccc3c(c2)N2C[C@H](C)CCCOc4c(cnn4C)-c4cc(cc(C)n4)C(=O)/N=C/2N3)CCN1C(=O)[C@@H]1CCN(c2cc(F)c([C@H]3CCC(=O)NC3=O)c(F)c2)C1 [Example 202]
Dmax / %: 78.8

molecule: Cc1cc2cc(n1)-c1cnn(C)c1OCC[C@H]1C[C@@H]1CN1/C(=N/C2=O)Nc2ccc(N3CCN(C4CCN(c5cc(F)c([C@H]6CCC(=O)NC6=O)c(F)c5)CC4)CC3)cc21 [Example 391]
Dmax / %: 87.5

(a) Cc1cc2cc(n1)-c1cnn(C)c1OCCC[C@@H](C)CN1/C(=N/C2=O)Nc2ccc(C3CCN(CC4CCN(c5cc(F)c([C@H]6CCC(=O)NC6=O)c(F)c5)CC4)CC3)cc21 [Example 323]
(b) Cc1cc2cc(n1)-c1cnn(C)c1OCC[C@@H]1C[C@H]1CN1/C(=N/C2=O)Nc2ccc(N3CCN(C4CCN(c5cnc(C6CCC(=O)NC6=O)cc5C)CC4)CC3)cc21 (stereo partly shown) [Example 470]
QUERY: Field: lower recorded Dmax (choose a or b ) // respond with label for picked entry
RESULT: a
(a: 63.9%, b: 92.1%)

Data origin: patent US20240342292A1
